The measurements presented in this section are drawn from PubChem BioAssay.

Entries and their slope
TARGET OR SYSTEM: Alpha-2C adrenergic receptor (Homo sapiens) (UniProt P18825)
Sequence (P18825 whole entry, looked up): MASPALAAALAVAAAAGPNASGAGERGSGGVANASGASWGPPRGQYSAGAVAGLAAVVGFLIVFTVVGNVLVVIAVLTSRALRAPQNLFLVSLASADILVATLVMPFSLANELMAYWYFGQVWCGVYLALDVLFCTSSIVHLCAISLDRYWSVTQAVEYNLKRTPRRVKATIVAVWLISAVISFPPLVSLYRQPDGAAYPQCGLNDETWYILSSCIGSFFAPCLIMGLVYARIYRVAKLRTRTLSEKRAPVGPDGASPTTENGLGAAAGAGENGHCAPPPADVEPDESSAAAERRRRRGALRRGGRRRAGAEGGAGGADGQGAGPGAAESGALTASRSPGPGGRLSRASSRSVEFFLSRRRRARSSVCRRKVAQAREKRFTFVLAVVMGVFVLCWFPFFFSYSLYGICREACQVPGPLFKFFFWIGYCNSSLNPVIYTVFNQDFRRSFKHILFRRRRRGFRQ
ASSAY PROCEDURE: modulators of alpha2C/GIRK thallium flux, primary screen, cell-based, HEK293 alpha2C/GIRK1/2 (AID 624);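 also: slope of fluorescence ratio to pre-addition baseline per second over 15 to 24 s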
TEST PARAMETERS: thallium flux BTC fluorescence, at 10 µM, actives lie on both sides
READOUT KIND: slope

[
  {
    "COMPOUND": "O=C(O)CC1Sc2nc3ccccc3n2C1=O (stereo not drawn)",
    "READOUT KIND": "slope",
    "MEASURED RESULT": 0.00572
  },
  {
    "COMPOUND": "C[C@]12CCC(=O)C=C1CC[C@@H]1[C@@H]2C(=O)C[C@@]2(C)[C@H]1CC[C@]2(O)C(=O)CO",
    "READOUT KIND": "slope",
    "MEASURED RESULT": 0.00463
  },
  {
    "COMPOUND": "CC(C)Sc1nc(N2CCCC2)c2c(c1C#N)CC(C)(C)OC2",
    "READOUT KIND": "slope",
    "MEASURED RESULT": 0.00612
  },
  {
    "COMPOUND": "COc1ccccc1N1CCN(C2CCN(C(=O)c3cc(OC)c(OC)c(OC)c3)CC2)CC1",
    "READOUT KIND": "slope",
    "MEASURED RESULT": 0.0055
  },
  {
    "COMPOUND": "CNC(=O)c1ncnnc1N(C)C(=O)NCc1ccccc1",
    "READOUT KIND": "slope",
    "MEASURED RESULT": 0.00729
  },
  {
    "COMPOUND": "CCN(CC)CCCN1C(=O)C(=O)/C(=C(/O)c2ccc(Cl)cc2)C1c1ccccn1 (stereo not drawn)",
    "READOUT KIND": "slope",
    "MEASURED RESULT": 0.00491
  },
  {
    "COMPOUND": "N#Cc1ccc(-c2cccnc2)nc1SCC(=O)Nc1sc2c(c1C#N)CCC2",
    "READOUT KIND": "slope",
    "MEASURED RESULT": 0.00453
  },
  {
    "COMPOUND": "CCSc1nnc(NC(=O)C(CC)(C(F)(F)F)C(F)(F)F)s1",
    "READOUT KIND": "slope",
    "MEASURED RESULT": 0.00447
  },
  {
    "COMPOUND": "CCCCCC(=O)N1CC2(C)CN(C(=O)CCCCC)CC(C)(C1)C2=O",
    "READOUT KIND": "slope",
    "MEASURED RESULT": 0.00564
  },
  {
    "COMPOUND": "Cc1cc(C)c(C#N)c(SCc2[nH]nc3c2C(c2ccccc2)C(C#N)=C(N)O3)n1 (stereo not drawn)",
    "READOUT KIND": "slope",
    "MEASURED RESULT": 0.00484
  },
  {
    "COMPOUND": "Cn1nnnc1SCC(=O)NCC(=O)c1ccccc1",
    "READOUT KIND": "slope",
    "MEASURED RESULT": 0.00467
  },
  {
    "COMPOUND": "CCSc1nc(N)c2c3c(sc2n1)CCC3",
    "READOUT KIND": "slope",
    "MEASURED RESULT": 0.00637
  },
  {
    "COMPOUND": "CCOC(=O)c1n[nH]c2ccccc12",
    "READOUT KIND": "slope",
    "MEASURED RESULT": 0.00468
  },
  {
    "COMPOUND": "O=C(O)CCCCCN1C(=O)CCC1=O",
    "READOUT KIND": "slope",
    "MEASURED RESULT": 0.0074
  },
  {
    "COMPOUND": "CN(C)CCNc1nc(-c2ccco2)c2c(c1C#N)CC(C)(C)OC2",
    "READOUT KIND": "slope",
    "MEASURED RESULT": 0.00509
  },
  {
    "COMPOUND": "Cc1noc(NS(=O)(=O)c2ccc(N)cc2)c1C",
    "READOUT KIND": "slope",
    "MEASURED RESULT": 0.00419
  },
  {
    "COMPOUND": "COc1ccc(Cl)cc1N=Cc1c(O)cc(C)oc1=O",
    "READOUT KIND": "slope",
    "MEASURED RESULT": 0.00387
  },
  {
    "COMPOUND": "CCN(CC)CC#CCOC(=O)C(O)(c1ccccc1)C1CCCCC1 (stereo not drawn)",
    "READOUT KIND": "slope",
    "MEASURED RESULT": 0.00459
  },
  {
    "COMPOUND": "CCOC(=O)c1ccc(N2C(=O)CC(Sc3nnc(C)s3)C2=O)cc1 (stereo not drawn)",
    "READOUT KIND": "slope",
    "MEASURED RESULT": 0.0059
  },
  {
    "COMPOUND": "Cc1ccccc1OCC(O)Cn1c(N2CCN(c3ccccc3)CC2)nc2c1c(=O)[nH]c(=O)n2C (stereo not drawn)",
    "READOUT KIND": "slope",
    "MEASURED RESULT": 0.00634
  },
  {
    "COMPOUND": "COc1ccc(Cl)cc1C(=O)NCCc1ccc(S(=O)(=O)NC(=O)NC2CCCCC2)cc1",
    "READOUT KIND": "slope",
    "MEASURED RESULT": 0.00532
  },
  {
    "COMPOUND": "COc1ccc(-c2cc(=O)[nH]c(=O)[nH]2)cc1",
    "READOUT KIND": "slope",
    "MEASURED RESULT": 0.00552
  },
  {
    "COMPOUND": "COc1cccc(COc2nc3c(c(=O)n(C)c(=O)n3C)n2C)c1",
    "READOUT KIND": "slope",
    "MEASURED RESULT": 0.00578
  }
]
